Entry source: BindingDB's records for doi:10.1021/bi9016186

- target: Dihydrolipoyl dehydrogenase (Mycobacterium tuberculosis (strain CDC 1551 / Oshkosh), UniProt P9WHH8)
- Sequence (P9WHH8 whole entry): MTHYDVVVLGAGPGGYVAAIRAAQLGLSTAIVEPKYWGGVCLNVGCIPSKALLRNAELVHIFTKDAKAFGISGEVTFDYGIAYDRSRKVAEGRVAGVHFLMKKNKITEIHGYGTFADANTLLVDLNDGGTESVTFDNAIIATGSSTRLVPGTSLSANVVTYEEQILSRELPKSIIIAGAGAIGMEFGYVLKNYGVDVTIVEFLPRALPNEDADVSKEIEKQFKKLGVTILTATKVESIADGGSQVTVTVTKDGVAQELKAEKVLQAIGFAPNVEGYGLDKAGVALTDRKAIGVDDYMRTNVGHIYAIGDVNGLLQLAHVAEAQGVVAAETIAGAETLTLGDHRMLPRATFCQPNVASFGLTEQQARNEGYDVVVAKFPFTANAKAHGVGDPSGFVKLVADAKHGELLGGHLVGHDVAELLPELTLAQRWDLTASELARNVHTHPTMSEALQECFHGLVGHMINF
- experimental.protocol: Enzymatic Assay
reported.endpoint: pIC50
pIC50 is a log-scale quantity: -log10 of the concentration expressed in molar.

Query: pIC50; subject: COc1ccc(C(=O)N2CCC3(CC2)C(=O)N(CC(=O)NCCc2ccc(C(F)(F)F)cc2)CN3c2ccccc2)c(OC)c1 [Triazaspirobenzyl, 4]
5.70
